log10 Ki values recorded for hCB2 receptor (Homo sapiens)
A value of 2 here means Ki of 100 in nM, since values are log10.

// known answers, use as guide
CC(C)(NC(=O)c1nn(Cc2ccc(F)cc2)c2ccccc12)C(=O)N1CCC[C@H]1C(N)=O: 0.78
CC(C)(NC(=O)c1nn(CC2CCOCC2)c2ccccc12)c1cccc(C(N)=O)c1: 1.75
CC(C)(NC(=O)c1nn(Cc2ccc(F)cc2)c2ccccc12)C1CCCN(C(N)=O)C1 (centres unmarked): 1.43
CC(C)(NC(=O)c1nn(CC2CCC(F)(F)CC2)c2ccccc12)c1cccc(C(N)=O)c1: 0.48

INPUT: Provide measured log10 Ki value, entry: `CC(F)(F)CCCn1nc(C(=O)NC(C)(C)c2cccc(C(N)=O)c2)c2ccccc21`
OUTPUT: 1.88

====

Experiment: Human liver microsome
Format: in vitro ADME
Settings: pooled human liver microsomes, pH 7.4
Exercise: state measured half-life at 1 μM for each of the compounds provided.
Answers are plain numbers, in h.

// known answers, use as guide
CC(C)(NC(=O)c1nn(Cc2ccc(F)cc2)c2ccccc12)C(=O)N1CCC[C@H]1C(N)=O: 10.2
CC(C)(NC(=O)c1nn(Cc2ccc(F)cc2)c2ccccc12)c1cccc(C(N)=O)c1: 2.05
CC(C)(NC(=O)c1nn(CC2CCOCC2)c2ccccc12)c1cccc(C(N)=O)c1: 3.13
CC(F)(F)CCCn1nc(C(=O)NC(C)(C)c2cccc(C(N)=O)c2)c2ccccc21: 2.67
CC(C)(NC(=O)c1nn(CCCCCF)c2ccccc12)c1cccc(C(N)=O)c1: 1.02

Pending compound:
INPUT: Provide measured half-life at 1 μM value, entry: `CCCCCn1nc(C(=O)NC(C)(C)c2cccc(C(N)=O)c2)c2ccccc21`
OUTPUT: 0.533

====

Exercise: state measured EC50 for each of the compounds provided.
Target: hCB1 receptor (Homo sapiens, UniProt P21554)
Sequence (P21554 whole entry): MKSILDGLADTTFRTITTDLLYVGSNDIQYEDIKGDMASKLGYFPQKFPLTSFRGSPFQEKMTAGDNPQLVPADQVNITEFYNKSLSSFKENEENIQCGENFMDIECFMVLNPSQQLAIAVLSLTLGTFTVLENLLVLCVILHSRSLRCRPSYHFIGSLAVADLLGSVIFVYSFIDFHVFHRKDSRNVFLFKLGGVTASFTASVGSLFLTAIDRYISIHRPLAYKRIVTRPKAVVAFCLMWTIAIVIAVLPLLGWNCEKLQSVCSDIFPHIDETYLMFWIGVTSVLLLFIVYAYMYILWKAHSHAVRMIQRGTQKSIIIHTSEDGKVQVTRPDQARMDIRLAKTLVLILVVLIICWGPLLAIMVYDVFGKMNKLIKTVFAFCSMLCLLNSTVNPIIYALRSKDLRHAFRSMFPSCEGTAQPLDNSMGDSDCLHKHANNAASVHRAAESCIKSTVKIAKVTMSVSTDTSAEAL
Test: hCB1 Gαq16-coupled calcium mobilization assay in CHO-K1 cells
Settings: hCB1 Ca EC50, CHO cells expressing hCB1 and Gαq16, calcium mobilization
One number for each entry, in nM.

// known answers, use as guide
NC(=O)c1cccc(C2(NC(=O)c3nn(Cc4ccc(F)cc4)c4ccccc34)CC2)c1: 2740
CNC(=O)[C@@H](NC(=O)c1nn(Cc2ccc(F)cc2)c2ccccc12)C(C)C: 12
CC1(NC(=O)c2nn(Cc3ccc(F)cc3)c3ccccc23)CCCN(CC(N)=O)C1 (centres unmarked): 39

Take each entry in turn and give its EC50.
1. NC(=O)N1CCC[C@H](NC(=O)c2nn(Cc3ccc(F)cc3)c3ccccc23)C1
2. NC(=O)CN1CCC[C@@H](NC(=O)c2nn(Cc3ccc(F)cc3)c3ccccc23)C1

OUTPUT:
[541, 803]

Take each entry in turn and give its EC50.
1. CC(C)(NC(=O)c1nn(Cc2ccc(C#N)cc2)c2ccccc12)c1cccc(C(N)=O)c1
2. NC(=O)CN1CCC[C@@H](CNC(=O)c2nn(Cc3ccc(F)cc3)c3ccccc23)C1
3. NC(=O)c1ccccc1CNC(=O)c1nn(Cc2ccc(F)cc2)c2ccccc12

OUTPUT:
234
168
423

====

Biological target: hCB1 receptor (Homo sapiens)
Test: hCB1 Gαq16-coupled calcium mobilization assay in CHO-K1 cells
Settings: hCB1 Ca EC50, CHO cells expressing hCB1 and Gαq16, calcium mobilization
Exercise: state measured EC50 for each of the compounds provided.

O=C(NCc1ccc(F)cc1)c1nn(Cc2ccc(F)cc2)c2ccccc12: 181 nM

Take each entry in turn and give its EC50.
1. CC(C)(NC(=O)c1nn(CCCCCF)c2ccccc12)c1cccc(C(N)=O)c1
2. CC(C)(NC(=O)c1nn(Cc2ccc(Cl)cc2)c2ccccc12)c1cccc(C(N)=O)c1
3. CC(C)(NC(=O)c1nn(Cc2ccc(F)cc2)c2ccccc12)C(=O)Nc1cccc(C(N)=O)c1

OUTPUT:
1. 84 nM
2. > 10000 nM
3. 360 nM

Data provenance is paper PMC12439760.
